Each entry below carries its recorded MES ED50.
tested on: maximal electroshock seizures (MES); details: ip, mice
experimental.readout: MES ED50 (mg/kg)

compound: CCc1cccc(C(C)C)c1NC(=O)c1ccc(N)cc1
assay.target: maximal electroshock seizures (MES)
quantity.unit: mg/kg
measured.result: 16.67

compound: CCC1(c2ccccc2)C(=O)NC(=O)NC1=O [Phenobarbital, reference compound]
assay.target: maximal electroshock seizures (MES)
quantity.unit: mg/kg
measured.result: 21.78

compound: Cc1cccc(C(C)C)c1NC(=O)c1ccc(N)cc1
assay.target: maximal electroshock seizures (MES)
quantity.unit: mg/kg
measured.result: 86.13

compound: Cc1cccc(NC(=O)c2ccc(N)cc2)c1C
assay.target: maximal electroshock seizures (MES)
quantity.unit: mg/kg
measured.result: 25.25

compound: Cc1cccc(C)c1NC(=O)c1cccc(N)c1
assay.target: maximal electroshock seizures (MES)
quantity.unit: mg/kg
measured.result: 13.48

compound: CC(C)c1ccccc1NC(=O)c1ccc(N)cc1
assay.target: maximal electroshock seizures (MES)
quantity.unit: mg/kg
measured.result: 81.52

compound: Cc1ccc(NC(=O)c2ccc(N)cc2)cc1C
assay.target: maximal electroshock seizures (MES)
quantity.unit: mg/kg
measured.result: 42.31

compound: Cc1cccc(NC(=O)c2ccc(N)cc2)c1
assay.target: maximal electroshock seizures (MES)
quantity.unit: mg/kg
measured.result: 46.96

---

Catalogue of MES PI (protective index = TD50/ED50) readings, one per entry.
system: maximal electroshock seizures (MES); details: mouse, in vivo, ip

compound: CCc1cccc(C(C)C)c1NC(=O)c1ccc(N)cc1 [Example 13]
result.modifier: =
MES PI (protective index = TD50/ED50): 2.95
//
compound: CC(C)c1ccccc1NC(=O)c1ccc(N)cc1 [Example 11]
result.modifier: =
MES PI (protective index = TD50/ED50): 8.70
//
compound: Cc1cccc(NC(=O)c2ccc(N)cc2)c1 [Example 4]
result.modifier: =
MES PI (protective index = TD50/ED50): 3.03
//
compound: Cc1cccc(NC(=O)c2ccc(N)cc2)c1C [Example 6]
result.modifier: =
MES PI (protective index = TD50/ED50): 4.11
//
compound: Cc1ccc(NC(=O)c2ccc(N)cc2)cc1C [Example 9]
result.modifier: =
MES PI (protective index = TD50/ED50): 4.59
//
compound: Cc1cccc(C(C)C)c1NC(=O)c1ccc(N)cc1 [Example 12]
result.modifier: >
MES PI (protective index = TD50/ED50): 17.42
//
compound: Nc1ccc(C(=O)Nc2ccccc2)cc1 [Example 2]
result.modifier: =
MES PI (protective index = TD50/ED50): 2.20
//
compound: Cc1cccc(C)c1NC(=O)c1cccc(N)c1 [II-1]
result.modifier: =
MES PI (protective index = TD50/ED50): 21.11

---

# LD50 annotations
assay: in vivo; conditions: mouse, ip
experimental.readout: LD50 (mg/kg)

compound: CCc1cccc(C(C)C)c1NC(=O)c1ccc(N)cc1 [Example 13]
result.modifier: <
measured.result: 600

compound: CCCC(CCC)C(=O)O [Valproic Acid, reference compound]
result.modifier: =
measured.result: 1100

compound: Cc1cccc(NC(=O)c2ccc(N)cc2)c1C [Example 6]
result.modifier: <
measured.result: 600

compound: Cc1ccccc1NC(=O)c1ccc(N)cc1 [Example 3, 4-amino-N-(2-methylphenyl) benzamide]
result.modifier: <
measured.result: 600

compound: Cc1cccc(C)c1NC(=O)c1ccc(N)cc1 [Example 1, 4-Amino-N-(2,6-dimethylphenyl) benzamide]
result.modifier: =
measured.result: 161

---

# ED50 listing for each entry below
system: subcutaneous Metrazole (scMet) induced convulsions; assay: Subcutaneous pentylenetetrazole (Metrazol) seizure threshold test (scMet) in mice, ip; details: Mus musculus, ip, read-out: scMET ED50

compound: CCC1(c2ccccc2)C(=O)NC(=O)NC1=O [Phenobarbital, reference compound]
ED50 / mg/kg: 13.2

compound: Cc1ccc(NC(=O)c2ccc(N)cc2)cc1C
ED50 / mg/kg: 80.8

compound: Cc1cccc(NC(=O)c2ccc(N)cc2)c1
ED50 / mg/kg: 87.9

compound: CCCC(CCC)C(=O)O [Valproic Acid, reference compound]
ED50 / mg/kg: 149

---

The reader will find reported TD50 values listed item by item below.
system: neurologic deficit (rotorod); details: mouse, in vivo, ip
experimental.readout: TD50 (mg/kg)

smiles.text: Cc1cccc(NC(=O)c2ccc(N)cc2)c1
experimental.readout: TD50
result.modifier: =
measured.result: 142.51
--
smiles.text: Cc1cccc(NC(=O)c2ccc(N)cc2)c1C
experimental.readout: TD50
result.modifier: =
measured.result: 103.90
--
smiles.text: CC(C)c1ccccc1NC(=O)c1ccc(N)cc1
experimental.readout: TD50
result.modifier: =
measured.result: 708.98
--
smiles.text: Cc1ccc(NC(=O)c2ccc(N)cc2)cc1C
experimental.readout: TD50
result.modifier: =
measured.result: 194.14
--
smiles.text: Cc1cccc(C(C)C)c1NC(=O)c1ccc(N)cc1
experimental.readout: TD50
result.modifier: >
measured.result: 1500.0
--
smiles.text: CCc1cccc(C(C)C)c1NC(=O)c1ccc(N)cc1
experimental.readout: TD50
result.modifier: =
measured.result: 49.10

---

experiment: in vivo; details: mouse, ip

smiles.text: Cc1cccc(C)c1NC(=O)c1cccc(N)c1
quantity.unit: mg/kg
TD50: 285

---

test system: maximal electroshock seizures (MES); settings: ip, mice;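 note: seizures induced by corneal electroshock, 60-cycle alternating current at 50 mA for 0.2 s, protection means no hind limb tonic extension, scored right after the shock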

smiles.text: CC(C)c1ccccc1NC(=O)c1ccc(N)cc1
PI values (in words): highest PI values

smiles.text: Cc1cccc(NC(=O)c2ccc(N)cc2)c1C
PI values (in words): higher PI values

smiles.text: Cc1cccc(C(C)C)c1NC(=O)c1ccc(N)cc1
PI values (in words): highest PI values

smiles.text: Cc1ccc(NC(=O)c2ccc(N)cc2)cc1C
PI values (in words): higher PI values
